Tested on: RPMI-8226 leukemia
Experiment: NCI-60 one-dose screen, 48 h (100 = growth as untreated, 0 = no growth, -100 = all killed)
Conditions: 10 µM unless noted
Experimental: Growth inhibition of the RPMI-8226 human tumor cell line is measured as a screen for anti-cancer activity. Cells are grown in 96 well plates and exposed to the test compound for 48 hours. Compounds are tested at a single concentration, which is 10^-5 M for most compounds. The reported endpoint is percent growth (GI% or GIPRCNT), where numbers from 0 - 100% represent growth inhibition, and numbers from -100% - 0 represent cell death. For example, a value of 40 represents 60% growth inhibition. […]
About 83,000 compounds went through this panel and 20% of them were active in at least one assay; those are over-represented in the sample as a whole.
Just so you know, the groups by growth go like this: range A = under 10%, range B = from 10% up to 80%, range C = 80% and over

Some entries whose results are on file:
{"mol": "CC(C)(C)c1cc(-n2c(-c3ccc(Cl)cc3)nc3cc(C(=O)Nc4ccc(Cl)cc4)ccc32)n[nH]1", "class-label": "range B"}
{"mol": "O=C(O)c1cccc2c1Cc1cc([N+](=O)[O-])ccc1-2", "class-label": "range C"}
{"mol": "CCN1CCN(c2nc(C)cc(N(CCCNc3ccnc4cc(Cl)ccc34)Cc3ccco3)n2)CC1", "class-label": "range A"}
{"mol": "COc1ccc(/C=C2\\N=C(c3ccccc3)N(c3cc(OC)c(OC)cc3C(=O)N3N=C(C)CC3=O)C2=O)cc1", "class-label": "range B"}
{"mol": "COc1cccc(-c2nn(-c3ccccc3)cc2-c2ccnc(NCCCNS(=O)(=O)c3cccc(F)c3)c2)c1", "class-label": "range B"}
{"mol": "COc1cccc(-c2nn(-c3ccccc3)cc2-c2ccnc(NCCCO)c2)c1", "class-label": "range B"}
{"mol": "COc1ccc2c(c1)c1nc3cc(C)c(C)cc3nc1n2CCN(C)C", "class-label": "range A"}
{"mol": "COc1ccc2c(c1)c(-c1nc(-c3cn(C)c4ncccc34)cs1)cn2CCN", "class-label": "range B"}
{"mol": "COc1cnc2c(c1)C(=O)c1c-2n(CCCNCCN2CCOCC2)c(=O)c2cc([N+](=O)[O-])ccc12", "class-label": "range A"}
{"mol": "O=C(O)c1cccc2c1-c1ccc(Cl)cc1C2", "class-label": "range C"}

Query block: // bin(item) where item = COc1cc2c(cc1OC)C(=O)/C(=C/c1cc(-c3ccc4c(c3)OCO4)n[nH]1)C2
Result block: range A

Query block: Would you mind doing NC1=NN(c2ccccc2)C(=O)/C1=C/c1ccc(Cl)cc1 as well?
Result block: range C

Query block: Proceed to O=[N+]([O-])c1ccc(/C=N\Nc2ccccc2)cc1
Result block: range B

Query block: Likewise for O=C1/C(=C\c2ccco2)SC(=S)N1CCc1ccc(O)cc1 ?
Result block: range C

----------
System: ACHN renal
Assay: NCI-60 one-dose screen, 48 h
Settings: 10 µM unless noted
This is part of a sample that, as a whole, favours compounds with a hit. Of some 83,000 tested, about 20% had one in any assay. The source made the active and inactive calls. Rule for the calls: active = growth percent below 10; inactive = the rest.
Pick from class 1 for active, class 0 for inactive when you respond.

Use these answered entries as a reference point.
{"mol": "CC1=NN(c2ccc(S(=O)(=O)O)cc2Cl)C(=O)C1", "class-label": "class 0"}
{"mol": "COc1cc2c(cc1OC)C(=O)/C(=C/c1cc(-c3ccc4c(c3)OCO4)n[nH]1)C2", "class-label": "class 1"}
{"mol": "COc1cccc(-c2nn(-c3ccccc3)cc2-c2ccnc(NCCNS(=O)(=O)c3ccc(Cl)cc3)c2)c1", "class-label": "class 0"}
{"mol": "O=C(/C=C/c1cccc(O)c1)c1ccccc1O", "class-label": "class 0"}
{"mol": "Cn1cc(-c2csc(-c3cn(C(=O)OC(C)(C)C)c4ccccc34)n2)c2cccnc21", "class-label": "class 0"}

Query block: Field: outcome | Entry: CCN1CCN(C(=O)[C@]23CCC(C)(C)C[C@H]2C2=CC[C@@H]4[C@@]5(C)CC/C(=N/O)C(C)(C)[C@@H]5CC[C@@]4(C)[C@]2(C)CC3)CC1
Result block: class 0

Query block: Try COc1cc(/C=N/Nc2ncnc3c2c(C)nn3-c2ccc(F)cc2)ccc1O next.
Result block: class 0

Query block: What would you report for O=c1[nH]ncc(Br)c1Br ?
Result block: class 0

Query block: Item: Cc1cc(Cl)c2c(N(C)C)cccc2n1
Result block: class 0

Query block: Also check COc1ccc2c(c1)c(-c1nc(-c3cn(C)c4ncccc34)cs1)cn2CCN
Result block: class 0

Query block: Can you check Cc1cc(C=O)c(C)c2c1[nH]c1ccccc12 next?
Result block: class 0
